Test Readout: glass transition temperature (°C)
Unit °C implied. Number only.

>  <Molecule>
*c1ccc(Oc2ccccc2Oc2ccc(N3C(=O)c4ccc(-c5ccc6c(c5)C(=O)N(*)C6=O)cc4C3=O)cc2)cc1 (repeat unit)

>  <Endpoint Result>
241.00

$$$$

Report glass transition temperature, nothing else, for this molecule: *CCCCCCCCCCCCOc1c(OC)cc(/C=C/c2ccc(/C=C/c3cc(OC)c(O*)c(OC)c3)cc2)cc1OC (repeat unit)
61.10

Write down glass transition temperature measured for item *Nc1ccc(-c2ccc(NC(=O)c3cccc(C(*)=O)c3)c(S)c2)cc1S (repeat unit)
395.00

Specify glass transition temperature for *Oc1ccc(CC(NC(=O)CCc2ccc(OC(=O)CCCCCCCCC(*)=O)cc2)C(=O)OC(C)C)cc1 (repeat unit) and stop.
44.00

Identify measured glass transition temperature corresponding to *Oc1ccc(S(=O)(=O)c2ccc(Oc3ccc(C(C)(C)c4ccc(*)c(C(OC)(C(F)(F)F)C(F)(F)F)c4)cc3C(OC)(C(F)(F)F)C(F)(F)F)cc2)cc1 (repeat unit)
163.00

Entry *O[Si](*)(C)CCCOc1ccc2c(c1)c1cc(-c3ccc4c(c3)c3ccccc3n4CC(CC)CCCC)ccc1n2CC(CC)CCCC (repeat unit) needs its glass transition temperature filled in; supply it.
129.00

Retrieve glass transition temperature measured for *c1ccc(Oc2ccc(Oc3ccc(N4C(=O)C5CCC6C(=O)N(*)C(=O)C6C5C4=O)cc3)cc2)cc1 (repeat unit) and print it.
274.00

Identify measured glass transition temperature corresponding to *CC(*)(C)C(=O)OC1CCCCC1 (repeat unit) [Poly(cyclohexyl methacrylate)]
101.92

Read off the recorded glass transition temperature for *CC(*)C(=O)c1ccc(C)cc1 (repeat unit)
59.50

Consider the molecule *CC(CC(Cl)(Cl)Cl)O* (repeat unit) and give its recorded glass transition temperature.
-36.00

Return the recorded glass transition temperature value; entry: *CC(*)(C)C(=O)OCCCCCCN1CCN(c2ccc(/N=N/c3ccc([N+](=O)[O-])cc3)cc2)CC1 (repeat unit)
60.00

Look up and state reported glass transition temperature for *Nc1cccc(NC(=O)CCCCCCC(*)=O)c1 (repeat unit)
115.50

Please list glass transition temperature recorded for the molecule *CCCCCC(=O)Nc1ccc(Oc2ccc(Oc3ccc(NC(=O)CCCCCN4C(=O)c5ccc(C(=O)c6ccc7c(c6)C(=O)N(*)C7=O)cc5C4=O)cc3)cc2)cc1 (repeat unit)
158.00

// Input: *CCCCCCCCCCC(=O)Nc1ccc(Cc2ccc(NC(=O)CCCCCCCCCCN3C(=O)c4ccc(C(=O)c5ccc6c(c5)C(=O)N(*)C6=O)cc4C3=O)cc2)cc1 (repeat unit) . Output its glass transition temperature only.
136.00

Name the recorded glass transition temperature of the molecule listed here: *C(=O)c1ccc2c(c1)C(=O)N(c1ccc(Cc3ccc(N4C(=O)c5ccc(*)cc5C4=O)cc3)cc1)C2=O (repeat unit)
292.50
